CONDITIONS USED: dog, in vivo, po, 200 nmol/kg
Would you kindly list t½ for each of these compounds?
# value in h; strip the unit string

Item O=C(c1ccc(Cl)cc1)N1CC[C@@H]1COc1ccc(F)nc1 has what recorded t½?
2.5

// t½ lookup, key: O=C(c1ccc([N+](=O)[O-])cc1)N1CC[C@@H]1COc1ccc(F)nc1
1.9

Recorded t½ for O=C(c1ccccc1)N1CC[C@@H]1COc1ccc(F)nc1 , please?
1.8

Give its t½ value. Item: Cc1ccc(C(=O)N2CC[C@@H]2COc2ccc(F)nc2)cc1
2.4

Param item = COC(=O)c1ccc(C(=O)N2CC[C@@H]2COc2ccc(F)nc2)cc1 ; retrieve measured t½.
1.8

What value of measured t½ is listed for O=C(c1ccc(F)cc1)N1CC[C@@H]1COc1ccc(F)nc1 ?
1.6

Need t½ of COc1ccc(C(=O)N2CC[C@@H]2COc2ccc(F)nc2)cc1 , thanks.
2.0
